target: PSMA-expressing C4-2 cells (Homo sapiens, UniProt Q04609); construct: PSMA-expressing C4-2 cells (ATCC, Cat. No. CRL-3314) were cultured in RPMI-1640; host or cells: C4-2 cells; test: FACS binding assay (competition with 50 nM PSM-0183); details: FACS binding, C4-2 cells, competition with 50 nM PSM-0183; category; read-out: pIC50 [C4-2] CAT (converted)
Sequence (Q04609 whole entry): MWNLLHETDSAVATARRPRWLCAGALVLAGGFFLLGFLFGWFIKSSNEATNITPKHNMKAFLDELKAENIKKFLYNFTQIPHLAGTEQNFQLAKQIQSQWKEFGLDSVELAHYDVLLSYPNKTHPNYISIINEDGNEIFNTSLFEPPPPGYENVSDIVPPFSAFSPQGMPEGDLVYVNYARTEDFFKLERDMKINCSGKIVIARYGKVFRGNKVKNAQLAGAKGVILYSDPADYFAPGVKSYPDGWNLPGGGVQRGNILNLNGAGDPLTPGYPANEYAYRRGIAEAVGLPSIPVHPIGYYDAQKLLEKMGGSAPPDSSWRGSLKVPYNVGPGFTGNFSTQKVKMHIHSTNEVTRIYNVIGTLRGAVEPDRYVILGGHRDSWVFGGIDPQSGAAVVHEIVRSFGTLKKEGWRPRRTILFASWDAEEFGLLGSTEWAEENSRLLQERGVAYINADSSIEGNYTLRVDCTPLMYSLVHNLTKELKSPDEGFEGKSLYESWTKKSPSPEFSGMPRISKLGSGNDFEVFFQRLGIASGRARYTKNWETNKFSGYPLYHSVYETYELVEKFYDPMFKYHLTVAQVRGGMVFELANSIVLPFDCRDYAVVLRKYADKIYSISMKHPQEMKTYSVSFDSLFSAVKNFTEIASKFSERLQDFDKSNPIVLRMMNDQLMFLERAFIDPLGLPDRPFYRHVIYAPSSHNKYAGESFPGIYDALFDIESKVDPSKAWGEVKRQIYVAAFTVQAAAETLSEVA
Numbered stars: 1 amine (or outer) side, 2 acyl side, 3 side chain; on linkers, the order of the positions; unused ones are H or OH. Bridge positions count the residues as written; N and C are the ends. Square brackets hold non-standard residues; d marks the D form. Peptide text beside a SMILES is read from it. * marks the point of attachment. DOTA = O=C(O)CN1CCN(CC(=O)O)CCN(CC(=O)*)CCN(CC(=O)O)CC1; Arg(Me2a) = CN(C)C(=N)NCCC[C@H](N)C(=O)O; Phe(4-Cl) = N[C@@H](Cc1ccc(Cl)cc1)C(=O)O; Propanoyl(3-SO2NH2) = NS(=O)(=O)CCC(=O)*; X1 = O=C(CC1CCN([*:1])CC1)[*:2]; Lys(Me) = CNCCCC[C@H](N)C(=O)O; Tle = CC(C)(C)[C@H](N)C(=O)O; Orn = NCCC[C@H](N)C(=O)O; Aib = CC(C)(N)C(=O)O
Consider the following molecules; for each one, report its IC50.

Supply measured IC50 of C[C@@H](O)[C@H](NC(=O)[C@@H](NC(=O)[C@@H]1CSSC[C@H](NC(=O)[C@H](Cc2ccc(Cl)cc2)NC(=O)C(C)(C)NC(=O)CC2CCN(C(=O)CN3CCN(CC(=O)O)CCN(CC(=O)O)CCN(CC(=O)O)CC3)CC2)C(=O)N[C@@H](CCCCN)C(=O)N[C@@H](CCCNC(=N)N)C(=O)NC(C)(C)C(=O)N[C@@H](CC(N)=O)C(=O)N1)C(C)(C)C)C(N)=O [PSM-0248] ({DOTA}-[X1][Aib][Phe(4-Cl)]CKR[Aib]NC[Tle]T-NH2; disulfide 4-9) in your reply.
< 200 nM

Supply measured IC50 of CNCCCC[C@@H]1NC(=O)[C@@H](NC(=O)[C@H](Cc2ccc(Cl)cc2)NC(=O)C(C)(C)NC(=O)[C@@H](NC(=O)CC2CCN(C(=O)CN3CCN(CC(=O)O)CCN(CC(=O)O)CCN(CC(=O)O)CC3)CC2)[C@@H](C)O)CSSC[C@@H](C(=O)N[C@H](C(=O)N[C@H](C(N)=O)[C@@H](C)O)C(C)(C)C)NC(=O)[C@H](CC(N)=O)NC(=O)C(C)(C)NC(=O)[C@H](CCCNC(=N)N(C)C)NC1=O [PSM-0247] ({DOTA}-[X1]T[Aib][Phe(4-Cl)]C[Lys(Me)][Arg(Me2a)][Aib]NC[Tle]T-NH2; disulfide 5-10) in your reply.
< 200 nM

Supply measured IC50 of C[C@@H](O)[C@H](NC(=O)[C@@H](NC(=O)[C@@H]1CSSC[C@H](NC(=O)[C@H](Cc2ccc(Cl)cc2)NC(=O)C(C)(C)NC(=O)[C@@H](NC(=O)CC2CCN(C(=O)CN3CCN(CC(=O)O)CCN(CC(=O)O)CCN(CC(=O)O)CC3)CC2)[C@@H](C)O)C(=O)N[C@@H](CCCCN)C(=O)N[C@@H](CCCN)C(=O)NC(C)(C)C(=O)N[C@@H](CC(N)=O)C(=O)N1)C(C)(C)C)C(N)=O [PSM-0245] ({DOTA}-[X1]T[Aib][Phe(4-Cl)]CK[Orn][Aib]NC[Tle]T-NH2; disulfide 5-10) in your reply.
< 200 nM

Supply measured IC50 of CCCC[C@H](NC(=O)[C@@H]1CSSC[C@H](NC(=O)[C@H](Cc2ccccc2)NC(=O)[C@H](C)NC(=O)[C@@H](NC(C)=O)[C@@H](C)O)C(=O)N[C@@H](CCCCN)C(=O)N[C@@H](CCCNC(=N)N)C(=O)N[C@@H](C)C(=O)N[C@@H](CC(N)=O)C(=O)N1)C(=O)N[C@@H](C(=O)N[C@H](CC(=O)O)C(N)=O)[C@H](C)O in your reply.
1260 to 3160 nM

Supply measured IC50 of C[C@@H](O)[C@H](NC(=O)[C@@H](NC(=O)[C@@H]1CSSC[C@H](NC(=O)[C@H](Cc2ccc(Cl)cc2)NC(=O)C(C)(C)NC(=O)CCS(N)(=O)=O)C(=O)N[C@@H](CCCCN)C(=O)N[C@@H](CCCNC(=N)N)C(=O)NC(C)(C)C(=O)N[C@@H](CC(N)=O)C(=O)N1)C(C)(C)C)C(=O)N1CCC(CC(=O)N[C@H](CCCCNC(=O)CN2CCN(CC(=O)O)CCN(CC(=O)O)CCN(CC(=O)O)CC2)C(N)=O)CC1 [PSM-0215] ({Propanoyl(3-SO2NH2)}-[Aib][Phe(4-Cl)]CKR[Aib]NC[Tle]T[X1][dK](DOTA)-NH2; disulfide 3-8) in your reply.
< 200 nM

Data provenance: patent US20260083865A1
